TGT: SCRIB_2, Q14160
Sequence (Q14160 857-960): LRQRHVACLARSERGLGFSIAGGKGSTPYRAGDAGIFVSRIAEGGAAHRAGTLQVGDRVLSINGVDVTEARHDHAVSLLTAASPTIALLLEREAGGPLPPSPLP
MEASUREMENT_PROTOCOL: holdup assay
Set-up: key: below the threshold = too weak to quantify, mostly under pKd 3.1 to 4
MEASUREMENT_CONDITIONS: plain residues with an end cap or a label only (N-terminal biotin on a linker: ttds)
RECORDED_ENDPOINT: pKd
Give the figure only, with no unit attached.

| BINDER | REPORTED_VALUE |
| --- | --- |
| SGGKRKETLV [NET1, Q7Z628] | 3.54 |

Then there is this binder:
For the binder shown here, SSIDLWETAL [SLC15A5, A6NIM6] , give the reported pKd.
5.14
